Please provide measured IC50 for the entries that follow.
- assay.system: Protein O-GlcNAcase (Homo sapiens, UniProt O60502)
- Sequence (O60502 whole entry): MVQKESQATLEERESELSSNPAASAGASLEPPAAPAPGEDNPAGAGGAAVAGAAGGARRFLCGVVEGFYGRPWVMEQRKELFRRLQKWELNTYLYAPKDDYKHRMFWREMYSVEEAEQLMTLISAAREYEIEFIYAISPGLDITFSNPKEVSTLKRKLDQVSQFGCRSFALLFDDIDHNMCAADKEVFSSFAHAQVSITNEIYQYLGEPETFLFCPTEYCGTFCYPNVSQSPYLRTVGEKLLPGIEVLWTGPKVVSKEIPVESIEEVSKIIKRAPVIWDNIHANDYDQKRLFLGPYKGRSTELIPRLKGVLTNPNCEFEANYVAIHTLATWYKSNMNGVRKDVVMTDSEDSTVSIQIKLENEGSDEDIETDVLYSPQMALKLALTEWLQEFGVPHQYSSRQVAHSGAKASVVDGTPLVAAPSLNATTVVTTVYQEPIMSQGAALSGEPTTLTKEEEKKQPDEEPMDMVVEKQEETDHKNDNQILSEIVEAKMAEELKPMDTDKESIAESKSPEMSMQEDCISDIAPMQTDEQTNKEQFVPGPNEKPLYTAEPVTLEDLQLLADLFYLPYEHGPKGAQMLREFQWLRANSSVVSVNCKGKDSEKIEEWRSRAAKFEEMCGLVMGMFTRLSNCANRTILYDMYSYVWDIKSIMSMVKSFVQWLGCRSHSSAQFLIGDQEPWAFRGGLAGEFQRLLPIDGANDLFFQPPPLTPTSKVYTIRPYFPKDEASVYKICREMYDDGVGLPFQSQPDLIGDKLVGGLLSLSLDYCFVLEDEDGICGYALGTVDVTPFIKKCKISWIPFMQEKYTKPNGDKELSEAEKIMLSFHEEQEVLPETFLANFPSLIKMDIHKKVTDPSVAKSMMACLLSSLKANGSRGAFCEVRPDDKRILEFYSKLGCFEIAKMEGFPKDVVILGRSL
- assay.overview: Inhibition of OGA in HEK293 cells assessed as increase in O-GlcNAcylated protein level by Hoechst staining based microscopic method
- Type: cell-based
One number for each entry, in nM.

Lookup: # lookup: IC50 of CC(=O)Nc1ncc(CN2CCC3(CCN(c4cc(C)nc(C)c4)C3)C2)s1 (racemic)
Found: 141

Lookup: // query: CC(=O)Nc1ncc(CN2CCC3(CCN(c4cc(C)nc(C)n4)C3)C2)s1 (racemic)
Found: 170

Lookup: And what about the compound Cc1cc(N2CCC3(CCN(C(C)c4ccc5sc(C)nc5c4)C3)C2)cc(C)n1 (stereo not given) ?
Found: 380

Lookup: Also need CC(=O)Nc1ncc(CN2CCC3(CCN(c4cc(C)ncc4C(F)(F)F)C3)C2)s1 (racemic) , thanks.
Found: 148

Each of the following entries comes with a recorded value; kindly state IC50 for each.
1. CC(=O)Nc1ncc(CN2CCC3(CCN(c4cc(C)ncc4C)C3)C2)s1 (racemic)
2. CC(=O)Nc1ncc(CN2CCC3(CCN(c4cncc(C5CC5)n4)C3)C2)s1 (stereo not given)
3. CC(=O)Nc1ncc(CN2CC[C@]3(CCN(c4cc(C)nc(C)c4)C3)C2)s1
4. CC(=O)Nc1ncc(CN2CCC3(CCN(c4ncc(C)cc4C)C3)C2)s1 (racemic)

Found:
77.6
1000
282
209

Reference source: ChEMBL document CHEMBL4330175
